These data points were gathered from BindingDB's records for doi:10.1021/jm9811256.

Experiment: Inhibitory activity against varicella zoster virus thymidine kinase (VZV TK+) OKA strain
Documented pEC50 across a set of molecules
On this scale, pEC50 is minus log10 of a concentration expressed in M (mol/L).

>  <MOLECULE>
Nc1nc(Cl)nc2c1ncn2CCOCP(=O)(O)O

>  <pEC50>
3.89

$$$$
>  <MOLECULE>
Nc1nc(N)c2nc(Br)n(CCOCP(=O)(O)O)c2n1

>  <pEC50>
5.06

$$$$
>  <MOLECULE>
CCOP(=O)(O)COCCn1cnc2c(N)ncnc21

>  <pEC50>
3.88

$$$$
>  <MOLECULE>
Nc1nc(N)c2ncn(CCOCP(=O)(O)O)c2n1

>  <pEC50>
5.46

$$$$
>  <MOLECULE>
CC(C)OP(=O)(COCCn1c(Br)nc2c(N)nc(N)nc21)OC(C)C

>  <pEC50>
4.24

$$$$
>  <MOLECULE>
CC(C)OP(=O)(O)COCCn1cnc2c(O)nc(N)nc21

>  <pEC50>
7.92

$$$$
>  <MOLECULE>
Nc1nc(O)c2nc(Br)n(CCOCP(=O)(O)O)c2n1

>  <pEC50>
4.97

$$$$
>  <MOLECULE>
NC1=NC2N=CC=NC2C(=O)N1CCOCP(=O)(O)O (centres undefined)

>  <pEC50>
4.58

$$$$
>  <MOLECULE>
CC(C)CCCCCOP(=O)(O)COCCn1cnc2c(O)nc(N)nc21

>  <pEC50>
5.40

$$$$
>  <MOLECULE>
Nc1nc(=O)n(CCOCP(=O)(O)O)cc1Br

>  <pEC50>
4.74

$$$$

Name the reported pEC50 value associated with the molecule Nc1nc(O)c2c(ncn2CCOCP(=O)(O)O)n1
3.82

Would you mind telling me what pEC50 value was observed for CC(C)OP(=O)(COCCn1cnc2c(O)nc(N)nc21)OC(C)C ?
4.27

What measured pEC50 goes with CCOP(=O)(O)COCCn1cnc2c(O)nc(N)nc21 ?
7.60

# query: pEC50 of entry Nc1ccn(CCOCP(=O)(O)O)c(=O)n1
3.22

Return reported pEC50; argument: CC(C)CCCCCOP(=O)(COCCn1cnc2nc(N)nc(O)c21)OCCCCCC(C)C
4.21

Need pEC50, item CC(C)OP(=O)(COCCn1cnc2c(Cl)nc(N)nc21)OC(C)C
4.48
